- targetEntity: T1, Human OX40 expressed on transfected Jurkat or CHO cells (human, UniProt P43489 29-277)
- T1 construct: also called human OX40/Jurkat; human OX40/CHO
- T1 sequence: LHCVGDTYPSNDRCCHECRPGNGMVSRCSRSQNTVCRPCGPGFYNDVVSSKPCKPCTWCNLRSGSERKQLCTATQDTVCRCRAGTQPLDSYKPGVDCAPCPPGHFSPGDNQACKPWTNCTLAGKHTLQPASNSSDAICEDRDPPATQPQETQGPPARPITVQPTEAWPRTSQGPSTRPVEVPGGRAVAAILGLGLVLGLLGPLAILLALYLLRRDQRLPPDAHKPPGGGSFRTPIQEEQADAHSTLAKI
- assayNotes: flow cytometry on human OX40-transfected Jurkat cells, Alexa Fluor488 anti-human IgG Fc, Geo MFI

binder: 1G9B VHH-Fc bivalent antibody (antibody, human IgG1, V domains shown, Humanized VHH fused to human IgG1 Fc) VH: EVQLVESGGGLVQPGGSLRLSCAASGPLGYPHIAWFRQAPGKGLEFVSGIAWSGGDSYYADSVKGRFTISRDNSKNTLYLQMNSLRAEDTAVYYCAADTLVHYMGRHDISDREEYDYWGQGTLVTVSS
binding result: binds
//
binder: 3B8 VHH-Fc bivalent antibody (antibody, human IgG1, V domains shown, Humanized VHH fused to human IgG1 Fc) VH: EVQLVESGGGLVQPGGSLRLSCAASGPLGQPSIAWFRQAPGKGLEFVSGIAWSSGDTYYADSVKGRFTISRDNSKNTLYLQMNSLRAEDTAVYYCAADTRVHYMGRHDIRDREEYDYWGQGTLVTVSS
binding result: binds
//
binder: 2D9 VHH-Fc bivalent antibody (antibody, human IgG1, V domains shown, Humanized VHH fused to human IgG1 Fc) VH: EVQLVESGGGLVQPGGSLRLSCAASGPLGYPNIAWFRQAPGKGLEFVSGIAWSTGDTYYADSVKGRFTISRDNSKNTLYLQMNSLRAEDTAVYYCAADTVVHYMGRHDIRDREVYDYWGQGTLVTVSS
binding result: binds
//
binder: 1F4B VHH-Fc bivalent antibody (antibody, human IgG1, V domains shown, Humanized VHH fused to human IgG1 Fc) VH: EVQLVESGGGLVQPGGSLRLSCAASGPLGTPSIAWFRQAPGKGLEFVSAIAWSQGDTYYADSVKGRFTISRDNSKNTLYLQMNSLRAEDTAVYYCAADTVVHYMGRHDIRDEEEYDYWGQGTLVTVSS
binding result: binds
//
binder: 4E8 VHH-Fc bivalent antibody (antibody, human IgG1, V domains shown, Humanized VHH fused to human IgG1 Fc) VH: EVQLVESGGGLVQPGGSLRLSCAASGPLGYPSFAWFRQAPGKGLEFVSGIAWSSGDTYYADSVKGRFTISRDNSKNTLYLQMNSLRAEDTAVYYCAADTVVGYMGRHDIRDLEEYDYWGQGTLVTVSS
binding result: binds
//
binder: 4H2 VHH-Fc bivalent antibody (antibody, human IgG1, V domains shown, Humanized VHH fused to human IgG1 Fc) VH: EVQLVESGGGLVQPGGSLRLSCAASGPLGYPSIAWFRQAPGKGLEFVSGIAWSTGDTYYADSVKGRFTISRDNSKNTLYLQMNSLRAEDTAVYYCAADTVVHYMGRHDIRDAEEYDYWGQGTLVTVSS
binding result: binds
//
binder: 4D10 VHH-Fc bivalent antibody (antibody, human IgG1, V domains shown, Humanized VHH fused to human IgG1 Fc) VH: EVQLVESGGGLVQPGGSLRLSCAASGPLGYPFIAWFRQAPGKGLEFVSGIAWSTGDTYYADSVKGRFTISRDNSKNTLYLQMNSLRAEDTAVYYCAADTVVHYMGRHDIRDREEYDYWGQGTLVTVSS
binding result: binds
//
binder: 1E6 VHH-Fc bivalent antibody (antibody, human IgG1, V domains shown, Humanized VHH fused to human IgG1 Fc) VH: EVQLVESGGGLVQPGGSLRLSCAASGPLGLPSIAWFRQAPGKGLEFVSGIAWSTGDTYYADSVKGRFTISRDNSKNTLYLQMNSLRAEDTAVYYCAADTVVHYMGQHDIRDRVEYDYWGQGTLVTVSS
binding result: binds

// provenance: patent US20240383996A1
